Target: biotinylated human ApoC3 (human) (UniProt P02656)
Assay: SPR, biotinylated human ApoC3 on streptavidin chip, scFv-Fc injected, pH 5.5
Would you kindly list Kd for each of these binders?
Entry rule: numbers only, all in nM.

Exercise: Fill blank: measured Kd of the binder 5E5VH12_VLWT scFv-Fc antibody (scFv, part only; not given: Linker, domain order, Fc, V domains shown, not shown: another chain or arm of the molecule; a dimerising Fc or GST; small tags and cut ends) VH: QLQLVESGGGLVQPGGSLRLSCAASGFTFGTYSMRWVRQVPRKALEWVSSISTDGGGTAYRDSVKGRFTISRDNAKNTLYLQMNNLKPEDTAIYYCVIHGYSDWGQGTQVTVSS VL: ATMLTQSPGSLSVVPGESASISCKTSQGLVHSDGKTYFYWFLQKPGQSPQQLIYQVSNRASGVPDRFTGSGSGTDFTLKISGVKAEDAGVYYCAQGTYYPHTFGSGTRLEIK is ____.
Solution: 16

Exercise: Try this binder next: 5E5VHWT_VL8 scFv-Fc antibody (scFv, part only; not given: Linker, domain order, Fc, V domains shown, not shown: another chain or arm of the molecule; a dimerising Fc or GST; small tags and cut ends) VH: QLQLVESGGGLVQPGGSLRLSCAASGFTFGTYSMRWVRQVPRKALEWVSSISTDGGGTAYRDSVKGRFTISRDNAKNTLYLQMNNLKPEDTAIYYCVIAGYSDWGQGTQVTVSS VL: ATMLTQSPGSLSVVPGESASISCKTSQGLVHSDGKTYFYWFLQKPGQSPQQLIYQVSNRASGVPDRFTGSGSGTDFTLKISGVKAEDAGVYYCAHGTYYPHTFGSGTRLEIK
Solution: 4.29

Exercise: Try this binder next: 5E5WT scFv-Fc antibody (scFv, part only; not given: Linker, domain order, Fc, V domains shown, not shown: another chain or arm of the molecule; a dimerising Fc or GST; small tags and cut ends) VH: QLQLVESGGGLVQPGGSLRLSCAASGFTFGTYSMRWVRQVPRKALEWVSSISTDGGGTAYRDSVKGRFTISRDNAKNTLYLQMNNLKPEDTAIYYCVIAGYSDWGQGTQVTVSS VL: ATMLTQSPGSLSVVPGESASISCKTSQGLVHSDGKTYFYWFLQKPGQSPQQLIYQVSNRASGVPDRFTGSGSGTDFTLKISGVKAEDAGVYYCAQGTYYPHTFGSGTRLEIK
Solution: 0.06

Exercise: Try this binder next: 5E5VH5_VLWT scFv-Fc antibody (scFv, part only; not given: Linker, domain order, Fc, V domains shown, not shown: another chain or arm of the molecule; a dimerising Fc or GST; small tags and cut ends) VH: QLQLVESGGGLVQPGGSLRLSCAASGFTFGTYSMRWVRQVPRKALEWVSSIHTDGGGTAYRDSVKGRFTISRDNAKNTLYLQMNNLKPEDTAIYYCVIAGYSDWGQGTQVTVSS VL: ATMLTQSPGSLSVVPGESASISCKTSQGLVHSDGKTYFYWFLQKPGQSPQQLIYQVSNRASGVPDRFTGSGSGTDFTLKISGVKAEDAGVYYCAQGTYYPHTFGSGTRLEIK
Solution: 10.9
